# assay-target: thermostable mature transglutaminase variant (SEQ ID NO: 3) (Streptomyces mobaraensis, UniProt P81453)
# Construct: made in house; host or cells: E. coli (lysate)
# Sequence (P81453 other isoform, or with tags, fused parts or gaps): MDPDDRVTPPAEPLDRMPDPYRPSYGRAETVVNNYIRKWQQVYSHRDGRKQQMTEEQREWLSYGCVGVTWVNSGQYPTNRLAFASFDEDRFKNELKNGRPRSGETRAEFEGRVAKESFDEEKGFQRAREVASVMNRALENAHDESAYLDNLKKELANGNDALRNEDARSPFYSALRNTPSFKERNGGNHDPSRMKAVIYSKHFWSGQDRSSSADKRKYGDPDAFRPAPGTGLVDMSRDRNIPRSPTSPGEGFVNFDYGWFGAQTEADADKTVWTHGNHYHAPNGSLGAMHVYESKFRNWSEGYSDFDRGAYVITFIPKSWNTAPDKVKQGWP
# Type: biochemical
# condition: increase in transglutaminase activity relative to wild-type pro-peptide, casein assay; Method A
Where no end group is shown, it is not given here.
quantity-name: Reduction in binding affinity of inhibitory peptide relative to WT

Examples from the recorded data:
MDNGAGEETKSYAETYRETADDVANINALNESAPAASSAGPSFRAP [Variant L18E]: >1.2 fold
MDNGAGEETKSYAETYRLTADDVANANALNESAPAASSAGPSFRAP [Variant I26A]: >1.2 fold
MDNGAGEETKSYAETYRWTADDVANINALNESAPAASSAGPSFRAP [Variant L18W]: >1.2 fold
MDNGAGEETRSYAETYRLTADDVANINALNESAPAASSAGPSFRAP [Variant K10R]: >1.2 fold
MDNGAGEETCSYAETYRLTADDVANINALNESAPAASSAGPSFRAP [Variant K10C]: >1.2 fold

Quick one: give measured Reduction in binding affinity of inhibitory peptide relative to WT for MDNGAGEETKHYAETYRLTADDVANINALNESAPAASSAGPSFRAP [Variant S11H]
>1.2 fold

Dear colleague, please send me the reported Reduction in binding affinity of inhibitory peptide relative to WT for MDNGAGEETKSGAETYRLTADDVANINALNESAPAASSAGPSFRAP [Variant Y12G] when you can.
>1.2 fold

Tell us which Reduction in binding affinity of inhibitory peptide relative to WT value is on record for MDNGAGEETKSYANTYRLTADDVANINALNESAPAASSAGPSFRAP [Variant E14N]
>1.2 fold

Recall and state the measured Reduction in binding affinity of inhibitory peptide relative to WT for MDNGAGEETKSNAETYRLTADDVANINALNESAPAASSAGPSFRAP [Variant Y12N] .
>1.2 fold
